Just for reference, patent US20080058383A1 is where these values come from.

- test.system: androgen receptor (CMV-hAR) in CV-1 cells (Homo sapiens, UniProt P10275)
- Construct: expressed in transfected cells
- Sequence (P10275 1-920): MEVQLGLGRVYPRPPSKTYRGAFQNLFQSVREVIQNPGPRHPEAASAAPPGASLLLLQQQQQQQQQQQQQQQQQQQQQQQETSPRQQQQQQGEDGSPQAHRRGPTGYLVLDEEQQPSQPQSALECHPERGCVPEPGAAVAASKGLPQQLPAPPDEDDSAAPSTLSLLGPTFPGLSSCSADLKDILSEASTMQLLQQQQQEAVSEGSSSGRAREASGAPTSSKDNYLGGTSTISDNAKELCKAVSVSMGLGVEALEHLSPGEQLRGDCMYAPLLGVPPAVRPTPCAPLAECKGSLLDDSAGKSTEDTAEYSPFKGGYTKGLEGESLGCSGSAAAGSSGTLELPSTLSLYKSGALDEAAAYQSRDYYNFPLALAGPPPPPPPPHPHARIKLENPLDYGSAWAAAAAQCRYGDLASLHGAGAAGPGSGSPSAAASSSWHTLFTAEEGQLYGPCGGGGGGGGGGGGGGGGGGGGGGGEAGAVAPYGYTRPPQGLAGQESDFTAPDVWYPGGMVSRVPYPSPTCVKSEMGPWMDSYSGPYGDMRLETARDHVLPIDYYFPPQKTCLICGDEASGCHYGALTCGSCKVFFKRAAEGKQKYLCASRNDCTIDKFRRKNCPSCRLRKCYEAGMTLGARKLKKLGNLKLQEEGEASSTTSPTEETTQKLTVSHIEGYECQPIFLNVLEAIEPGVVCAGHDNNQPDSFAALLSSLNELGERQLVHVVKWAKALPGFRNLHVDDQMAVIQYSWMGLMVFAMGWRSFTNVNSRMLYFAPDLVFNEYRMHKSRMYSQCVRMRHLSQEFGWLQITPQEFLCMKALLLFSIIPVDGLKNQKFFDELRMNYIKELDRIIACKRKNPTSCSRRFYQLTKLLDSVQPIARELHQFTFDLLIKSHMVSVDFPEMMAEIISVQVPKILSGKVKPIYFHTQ
- protocol.notes: AR transactivation assay, antagonist mode (ARAF cells, ALP reporter, presence of 0.1 nM Mibolerone)
- Format: cell-based
Listed next: entries and their corresponding IC50.
readout.kind: IC50 (nM)

>  <smiles.data>
CC(C)[C@@H](CO)Nc1ccc([N+](=O)[O-])c(C(F)(F)F)c1

>  <test.system>
androgen receptor (CMV-hAR) in CV-1 cells (Homo sapiens, UniProt P10275)

>  <reading>
68.3

$$$$
>  <smiles.data>
CC(C)(CO)Nc1ccc([N+](=O)[O-])c(C(F)(F)F)c1

>  <test.system>
androgen receptor (CMV-hAR) in CV-1 cells (Homo sapiens, UniProt P10275)

>  <reading>
2.1

$$$$
>  <smiles.data>
CC[C@H](C)[C@@H](CO)Nc1ccc([N+](=O)[O-])c(C)n1

>  <test.system>
androgen receptor (CMV-hAR) in CV-1 cells (Homo sapiens, UniProt P10275)

>  <reading>
68.3

$$$$
>  <smiles.data>
N#Cc1ccc(NC2(CO)CCCC2)cc1C(F)(F)F

>  <test.system>
androgen receptor (CMV-hAR) in CV-1 cells (Homo sapiens, UniProt P10275)

>  <reading>
22.4

$$$$
